For each entry below, report its inhibition at 0.5 µM value.
# System under test: c-Met kinase (Homo sapiens, UniProt P08581)
# Construct: recombinant N-terminal 6×His-tagged c-Met kinase domain construct expressed from baculovirus; 6xHis (N); made in house
# Sequence (P08581 1078-1345 limits assumed): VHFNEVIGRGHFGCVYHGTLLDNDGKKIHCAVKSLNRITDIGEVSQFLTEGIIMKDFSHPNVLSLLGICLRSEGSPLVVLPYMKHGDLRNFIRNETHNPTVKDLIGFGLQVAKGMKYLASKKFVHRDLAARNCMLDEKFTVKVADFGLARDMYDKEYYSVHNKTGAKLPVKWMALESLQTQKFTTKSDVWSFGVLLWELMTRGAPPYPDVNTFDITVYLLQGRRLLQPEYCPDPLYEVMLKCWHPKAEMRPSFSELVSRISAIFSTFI
# Method notes: c-Met kinase assay (33P incorporation into Poly(Glu-Tyr))
# Type: biochemical
# Applied conditions: 500 nM test compound
# Procedure: Inhibition of c-Met kinase activity by compounds disclosed herein was quantified by measuring the amount of [^33P] incorporated into the substrate in the presence of a test compound. […] The plate was then sealed and counted using a TopCount scintillation detector (PerkinElmer). The percentage of inhibition rate of the test compound was calculated by dividing the retained radioactivity of the test sample with the retained radioactivity of the control sample and shown in Table 3.
Field: numeric (%). Do not append units.

Using known records, supply inhibition at 0.5 µM for CCOC(=O)CCc1c(/C=C2\C(=O)Nc3ccc(NS(=O)(=O)c4ccccc4)cc32)[nH]c2c1C(=O)CCC2 [DCB-70102] 33.7

// fetch inhibition at 0.5 µM given entry CCOC(=O)CCc1c(/C=C2\C(=O)Nc3ccc(-c4cc5ccccc5s4)cc32)[nH]c2c1C(=O)CCC2 [DCB-70069] -38

For the molecule NS(=O)(=O)c1ccc2c(c1)/C(=C/c1[nH]c3c(c1CCC(=O)O)C(=O)CCC3)C(=O)N2 [DCB-70095] , give its measured inhibition at 0.5 µM value. 16

Fill in inhibition at 0.5 µM for record CCOC(=O)CCc1c(/C=C2\C(=O)Nc3ccc(NC(=O)Nc4ccc(Cl)c(C(F)(F)F)c4)cc32)[nH]c2c1C(=O)CCC2 [DCB-70137] 11.5

State its inhibition at 0.5 µM for this molecule: CCOC(=O)CCc1c(/C=C2\C(=O)Nc3cc(-c4ccc(O)c(OC)c4)ccc32)[nH]c2c1C(=O)CCC2 [DCB-70081] 25.6

Answer with the recorded inhibition at 0.5 µM of CCOC(=O)CCc1c(/C=C2\C(=O)Nc3ccc([N+](=O)[O-])cc32)[nH]c2c1C(=O)CCC2 [DCB-70062] only. 34.1

In one line, give reported inhibition at 0.5 µM of the entry O=C(O)CCc1c(/C=C2\C(=O)Nc3ccc(S(=O)(=O)N4CCCC4)cc32)[nH]c2c1C(=O)CCC2 [DCB-70087] . 20.9

Tell me its inhibition at 0.5 µM given CCOC(=O)CCc1c(/C=C2\C(=O)Nc3ccc(NC(=O)c4ccc([N+](=O)[O-])cc4)cc32)[nH]c2c1C(=O)CCC2 [DCB-70140] as the entry. 9.3

Read off the recorded inhibition at 0.5 µM for CCOC(=O)CCc1c(/C=C2\C(=O)Nc3ccc(-c4ccc(F)cc4)cc32)[nH]c2c1C(=O)CCC2 [DCB-70108] 30.1

Given the molecule O=C(O)CCc1c(/C=C2\C(=O)Nc3ccc(F)cc32)[nH]c2c1C(=O)CCC2 [DCB-70055] , write its reported inhibition at 0.5 µM. 21.7

Please supply the value of reported inhibition at 0.5 µM for the item O=C(O)CCc1c(C=C2C(=S)Nc3cc(Br)ccc32)[nH]c2c1C(=O)CCC2 [DCB-70086] 21.6

Quickly give me recorded inhibition at 0.5 µM for CC(=O)c1c(C)[nH]c(/C=C2\C(=O)Nc3ccc(S(=O)(=O)Cc4c(Cl)cccc4Cl)cc32)c1CCC(=O)O [DCB-70202] 85.2

Retrieve inhibition at 0.5 µM measured for CC(=O)c1c(C)[nH]c(/C=C2\C(=O)Nc3ccc(S(=O)(=O)Cc4c(Cl)cccc4Cl)cc32)c1CCC(=O)N1CCN(C)CC1 [DCB-70205] and print it. 97

Please look at this molecule and report its inhibition at 0.5 µM: CC(=O)c1c(C)[nH]c(/C=C2\C(=O)Nc3ccc(NS(=O)(=O)c4ccccc4)cc32)c1CCC(=O)N1CCN(C)CC1 [DCB-70219] 17.7
